- system: hMPV F protein of hMPV TN/93-32 (genotype B) (human metapneumovirus)
- experimentSummary: cell-based or functional assay
metric: IC50, plaque-reduction neutralization of hMPV TN/93-32 (µg/mL)

# binder, units, obsValue
rows = [
    ("MPV482 (antibody, V domains shown) VH: EVQLVQSGGGVVQPGRSLRLSCAASGFTFSSFAMHWVRQAPGKGLEWVALISDDGNNKYHADSVKGRFTISRDSSKNTLYLQMNSLRGEDTAVYYCARDGSVVGAAAHCDHWGQGTLVTVSS VL: SYELTQPPSVSVSPGQTARITCSGDALPNQCAYWYQQKPGLAPVLLIYKDKERPSGIPERFSGSISGTTVTLTISGVQAEDEADYYCQSSDSSSTVVFGGGTKLTVL", "µg/mL", 0.047),
    ("MPV86 (antibody, V domains shown) VH: QVQLVQSGAEVKKPGSSVKVSCKASGDTFNDVALSWVRQAPGQGLEWLGGIIPFFGTANYAQRFQDRVTITADASTSTAYLELGGLRSEDTAVYYCARGWSCRNITCFMMGYYFYIMDVWGQGTLVTVSS VL: LSLSPGERATLSCRASQSVGNFLAWYQQKPGQTPRLLIQDASNRATGIPARFSGTGSGTDFTLTISSLEPEDFAVYYCQQRSNWPPTFGPGTKVDIK", "µg/mL", 1.8),
    ("MPV414 (antibody, V domains shown) VH: QVQLVQSGPEVKKPGSSVMVSCKTSGGNFNNFAISWVRQAPGQGLEWMGGIVPIFGTANYAQKSQDRVTITADPSSSTAYLQLSSLTSDDTAIYYCARDLGRSSNYYYYSVFESWGQGTLVTVSS VL: DIVMTQSPATLSLSPGERATLSCRASQSVGDKLAWYQQKPGQAPRLLIYGASTRATDIPARFSGSGSGTEFTLTVSSLQPEDFAVYYCQQYENWPPITFGQGTRLEIK", "µg/mL", 0.59),
]
